Test system: KM12
method notes: NCI tumour cell line growth inhibition, 48 h
Calls of active or inactive are those of the source. Cut-off read from the data, not from the text of the source: active = GI50 up to about 1.1 µM and inactive = higher.
# output must be one of 1 (yes) for active, 0 (no) for inactive

Q: // param item: NCC1(N2CCOCC2)C2CCCC21CNc1ccccc1 (centres undefined) ; yields the recorded call
Result: 0 (no)

Q: // param item: CC1OC(OC2C(O[C@H]3CC[C@@H]4C(=CC[C@@H]5[C@@]4(C)C(=O)C[C@]4(C)[C@@H]([C@H](C)CC[C@@H](O)C(C)(C)O)CC[C@@]54C)C3(C)C)OC(CO)C(O)C2O)C(O)C(O)C1O (some centres undefined) ; yields the recorded call
Result: 0 (no)

Q: // param item: COc1ccc2c(c1)O[C@@H]1[C@@H](OC3OC(CO)C(O)C(O)C3O)Oc3cc(OC)c(OC)cc3[C@]1(O)C2=O (some centres undefined) ; yields the recorded call
Result: 0 (no)

Q: // param item: `O=C(O)c1ccccc1C(=O)c1ccc2c(c1)Cc1ccccc1-2` ; yields the recorded call
Result: 0 (no)

Q: // param item: CC(CC(C#N)(c1ccccc1)c1ccccc1)N1CCCCC1 (centres undefined) ; yields the recorded call
Result: 0 (no)

Q: // param item: `COc1cc2c(cc1OC)C(CCN)=NCC2` ; yields the recorded call
Result: 0 (no)

Q: // param item: `Cc1c(NC(=O)CCCl)c(=O)oc2c(C)c3occc(=O)c3cc12` ; yields the recorded call
Result: 0 (no)

Q: // param item: `Cc1ccc2c(O)cc(-c3csc4ccccc34)nc2n1` ; yields the recorded call
Result: 1 (yes)

Q: // param item: CCOC(=O)[C@@]12C3C=CC(CC3)[C@]1(C(=O)c1ccccc1)C(=O)C(=O)N2c1ccccc1 (some centres undefined) ; yields the recorded call
Result: 0 (no)

###

System: T47D
method notes: NCI tumour cell line growth inhibition, 48 h
The source made the active and inactive calls. Cut-off read from the data, not from the text of the source: active = GI50 up to about 1.1 µM and inactive = higher.
# output must be one of active, inactive

Q: // param item: `CSc1nc(SC)c2c(C)cn(Cc3ccccc3)c2n1` ; yields the recorded call
Result: inactive

Q: // param item: CN(C)CC1CCC(CN(C)C)C1=O (stereo unspecified) ; yields the recorded call
Result: inactive

Q: // param item: `COc1cccc2cc(C(=O)O)c(=O)oc12` ; yields the recorded call
Result: inactive

Q: // param item: `CN(C)c1ccc(C(=O)NCCCCCCC(=O)NO)cc1` ; yields the recorded call
Result: active

Q: // param item: CSCCC(NC(c1ccccc1)c1ccccc1)[PH](=O)O (stereo unspecified) ; yields the recorded call
Result: inactive

Q: // param item: COc1cccc(C2c3cc4c(cc3OC(N3CCCCC3)C2C)OCO4)c1OC (stereo unspecified) ; yields the recorded call
Result: inactive

Q: // param item: `CN(C)CCNC(=O)Cn1ccc(=O)c2ccc([N+](=O)[O-])cc21` ; yields the recorded call
Result: inactive

Q: // param item: Nc1nc2c(c(=O)[nH]1)C(c1ccccc1)CC(=O)N2 (stereo unspecified) ; yields the recorded call
Result: inactive

Q: // param item: `COc1ccc2nccc(/C=C/c3ccc(N(C)C)cc3)c2c1` ; yields the recorded call
Result: inactive

Q: // param item: `CCn1c2nc(=O)n(CCCCCCCCSC(c3ccccc3)(c3ccccc3)c3ccccc3)c(=O)c-2nc2ccccc21` ; yields the recorded call
Result: inactive

Q: // param item: `COc1cc(C)c(/C=C2/N=C(c3ccccc3)OC2=O)c([N+](=O)[O-])c1OC` ; yields the recorded call
Result: inactive

###

Test system: HOP-92
method notes: NCI tumour cell line growth inhibition, 48 h
Active and inactive are the calls of the source. Rule as the data show it: active = GI50 up to about 1.1 µM and inactive = higher.
# output must be one of YES (active), NO (inactive)

Q: // param item: `COc1ccc(CCN2CCN(CCc3ccc(OC)cc3)CC2)cc1` ; yields the recorded call
Result: NO

Q: // param item: `O=[N+]([O-])c1ccc(Cl)cc1-n1nc(-c2ccccc2)cc1-c1ccccc1` ; yields the recorded call
Result: NO

Q: // param item: CCOC(=O)C1([Se]c2ccccc2)CCCC1=O (stereo not drawn) ; yields the recorded call
Result: NO

Q: // param item: `Nc1nc(=O)[nH][nH]1` ; yields the recorded call
Result: NO

Q: // param item: CCSCC(N)C(=O)O (stereo not drawn) ; yields the recorded call
Result: YES

Q: // param item: COC(=O)C1=COC(C)C2C[n+]3ccc4c([nH]c5ccccc54)c3CC12 (stereo not drawn) ; yields the recorded call
Result: NO

Q: // param item: `O=c1[nH]nc(Nc2ccccc2)c2nnn(Cc3ccccc3)c12` ; yields the recorded call
Result: NO

Q: // param item: C[C@H]1CCC2C(OC(=O)[C@@H]2CN(C)C)[C@]2(C)C(=O)C=CC12O (stereo partly drawn) ; yields the recorded call
Result: NO

Q: // param item: `CC(=O)c1ccc(N2CCN(C3=C(Cl)C(=O)c4c(O)ccc(O)c4C3=O)CC2)cc1` ; yields the recorded call
Result: NO

Q: // param item: CCCCCCCCCCCCCCCC(=O)OC(COC(C)=O)CO[PH](=O)O (stereo not drawn) ; yields the recorded call
Result: NO

Q: // param item: CCOc1ccccc1/N=N/C1C(=O)N(C(=O)CC(=O)Nc2ccccc2OC)N=C1C (stereo not drawn) ; yields the recorded call
Result: NO

Q: // param item: `Cc1ccc(Nc2nc3[nH]ccc3c(=O)[nH]2)cc1` ; yields the recorded call
Result: NO

Q: // param item: `COc1cccc2cc(C(=O)O)c(=O)oc12` ; yields the recorded call
Result: NO

Q: // param item: Cc1ccccc1C(C#N)C(=O)C(=O)Nc1cccc(Cl)c1 (stereo not drawn) ; yields the recorded call
Result: NO

Q: // param item: COC1CC(O)C(OC(=O)c2ccccc2)C(C)O1 (stereo not drawn) ; yields the recorded call
Result: NO

Q: // param item: COc1ccc2c(c1)O[C@@H]1[C@@H](OC3OC(CO)C(O)C(O)C3O)Oc3cc(OC)c(OC)cc3[C@]1(O)C2=O (stereo partly drawn) ; yields the recorded call
Result: NO

Q: // param item: `COC1=C(OC)CCC(/C(C#N)=C/c2ccc(OC)c(OC)c2)=C1` ; yields the recorded call
Result: NO

Q: // param item: CC(=O)OC1COC(n2ccc3cc(Br)c([N+](=O)[O-])cc32)C(OC(C)=O)C1OC(C)=O (stereo not drawn) ; yields the recorded call
Result: NO

Q: // param item: `CCCCN(CCCC)C(=O)/C(CC(=O)c1cccc2ccccc12)=N\NC(=O)c1cc2ccccc2cc1O` ; yields the recorded call
Result: NO

Q: // param item: `CSc1nc(SC)c2c(CN=[N+]=[N-])c(Br)n(Cc3ccccc3)c2n1` ; yields the recorded call
Result: NO

Q: // param item: C=C(C#N)C1OCC2OC(C)(C)OC21 (stereo not drawn) ; yields the recorded call
Result: NO

Q: // param item: COc1cccc(C2c3cc4c(cc3OC(N3CCCCC3)C2C)OCO4)c1OC (stereo not drawn) ; yields the recorded call
Result: NO

Q: // param item: `O=C1/C(=C\c2ccco2)Oc2ccccc21` ; yields the recorded call
Result: NO

###

System: MOLT-4
method notes: NCI tumour cell line growth inhibition, 48 h
Active and inactive are the calls of the source. No stated cut-off is given here; in the data, active = GI50 up to about 1.1 µM and inactive = higher.
# output must be one of T = active, F = inactive

Q: // param item: CC1C(O)[C@@]2(OC[C@@]34C(=O)CC5(O)[C@H](CCC6Cc7nc8c(nc7C[C@]65C)CC5CC[C@@H]6C7=C[C@H]9O[C@@]%10(O[C@@](C)(CO)C[C@@H]%10O)C(C)[C@@]9(O)[C@]7(C)[C@@H](O)CC6[C@]5(C)C8)C3=CC[C@H]4C2C)OC1(C)C (stereo not given in full) ; yields the recorded call
Result: T

Q: // param item: Nc1nc2c(c(=O)[nH]1)C(c1ccccc1)CC(=O)N2 (stereo not given) ; yields the recorded call
Result: F

Q: // param item: `O=c1c2ccccc2n2nnc3ccc(NCCCNCCNCCCNc4ccc5nnn6c7ccccc7c(=O)c4c56)c1c32` ; yields the recorded call
Result: T

Q: // param item: NC(CCOCCP(=O)(O)O)C(=O)O (stereo not given) ; yields the recorded call
Result: F

Q: // param item: `CSC1=Nc2ccccc2N=C(c2ccc(Cl)cc2)C1` ; yields the recorded call
Result: F

Q: // param item: `COc1ccc(CCN2CCN(CCc3ccc(OC)cc3)CC2)cc1` ; yields the recorded call
Result: F

Q: // param item: COc1ccc2c(c1)CC1(O)COc3cc(OC)ccc3C1O2 (stereo not given) ; yields the recorded call
Result: F

Q: // param item: Nc1ccc([As](=O)(O)O)cc1 [ARSANILIC ACID] ; yields the recorded call
Result: F

Q: // param item: `COC(=O)c1c(O)ccc2c1c1c(n2CCc2ccc(OC)c(OC)c2)C(=O)c2ccccc2C1=O` ; yields the recorded call
Result: F

Q: // param item: `N#CC(=C1CCN(CCCC(=O)c2ccc(F)cc2)CC1)c1ccccc1` ; yields the recorded call
Result: F

Q: // param item: `COc1cc(/C=C/C(=O)N[C@@H]2C(=O)N3[C@@H]2SC(C)(C)[C@@H]3C(=O)O)ccc1O` ; yields the recorded call
Result: F

Q: // param item: Clc1cccc(N2CCN(CCN3CCc4c([nH]c5ccccc45)C3c3cccnc3)CC2)c1 (stereo not given) ; yields the recorded call
Result: F

Q: // param item: `O=C1CN(c2ccccc2)C(=O)CN1CCN1CC(=O)N(c2ccccc2)CC1=O` ; yields the recorded call
Result: F

Q: // param item: `COc1cccc2cc(C(C)=O)c(=O)oc12` ; yields the recorded call
Result: F

Q: // param item: `Cc1cc2nc(N3C(=O)/C(=C/c4ccccc4S)N=C3c3ccccc3)sc2cc1C` ; yields the recorded call
Result: F

Q: // param item: `O=C/C1=C/C2=Cc3ccccc3C=C(/C=C(/C=O)C1)C2` ; yields the recorded call
Result: F

Q: // param item: C=CC(c1ccccc1)C1(O)c2cccc(O)c2C(=O)c2c(O)cccc21 (stereo not given) ; yields the recorded call
Result: F

Q: // param item: `CC1=C(C)C1[N+](=O)[O-]` ; yields the recorded call
Result: F

Q: // param item: `COc1cc2c(c(O)c1OC)C(=O)[C@@H]1CCC(=O)N1C2` ; yields the recorded call
Result: F

Q: // param item: `C=CCN(c1cc(OCc2ccccc2)c2c(c(C)cn2S(=O)(=O)c2ccc([N+](=O)[O-])cc2)c1[N+](=O)[O-])S(C)(=O)=O` ; yields the recorded call
Result: F
